molecular target: Serine/threonine-protein kinase PAK 3 (Homo sapiens); details: at 0.1 µM;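 also: mean percent inhibition of PAK3, measured in a screen of the GSK published kinase inhibitor set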
Catalogue of compounds with associated inhibition
Reply with just the number (in %).

Worked set:
N#Cc1c(NC(=O)c2ccccc2F)sc2c1CCCC2	-2.48
COC(=O)c1cncc(/C=C/c2c(C)cc(O)cc2C)c1	4.48
Nc1nccc(-c2c(-c3ccc(F)cc3)ncn2CCCN2CCOCC2)n1	5.89
CCOc1nccc2c1nc(-c1nonc1N)n2CC	3.24
Cc1ccc(NC(=O)CC2CC2)cc1-c1ccc(C(=O)NCC2CC2)cc1	3.33

Query string: Please report inhibition for the following compound: FC(F)(F)c1ccc(-c2nn3ncccc3c2-c2ccnc(Nc3ccc4c(c3)OCCO4)n2)cc1
Result string: 3.69

Query string: Fill in inhibition for record COc1cccc(-n2ncc3c(N/N=C/c4ccc(S(C)(=O)=O)cc4)ncnc32)c1
Result string: 0.46

Query string: Give the reported inhibition for this compound. C[C@@H](Oc1cc(-n2cnc3ccc(OC[C@@H](O)CO)cc32)sc1C(N)=O)c1ccccc1Cl
Result string: -2.28

Query string: Assign inhibition to the following record: NS(=O)(=O)c1ccc(NC=C2C(=O)Nc3ccc4ncsc4c32)cc1
Result string: 5.33

Query string: Find the measured inhibition of CCn1c(-c2nonc2N)nc2c(C#CC(C)(C)O)nc(OCCNC)cc21 and report it.
Result string: 3.16

Query string: State its inhibition for this compound: COc1ccc2ncnc(Nc3ccc(OCc4ccccc4)cc3)c2c1
Result string: 2.33

Query string: Respond only with inhibition recorded for CCn1c(-c2nonc2N)nc2ccc(F)cc21
Result string: 7.78

Query string: Determine its reported inhibition: Cc1ccc2c(-c3ccnc(Nc4ccc5c(c4)OCCO5)n3)c(-c3ccc(C(F)(F)F)cc3)nn2n1
Result string: 2

Query string: Report measured inhibition; entry is CC(C)c1ccc(Nc2nccc(-c3cnn4ncccc34)n2)cc1
Result string: 1.95

Query string: Determine its reported inhibition: Oc1cccc(-c2nc(-c3ccccc3)[nH]c2-c2ccncc2)c1
Result string: 3.47

Query string: Kindly indicate its recorded inhibition. Item: CN(C)C(=O)O[C@@H]1CN[C@@H](C#Cc2cc3ncnc(Nc4ccc(OCc5cccc(F)c5)c(Cl)c4)c3s2)C1
Result string: 0.58

====

Known inhibition of a selection of compounds
biological target: Phosphorylase b kinase gamma catalytic chain, liver/testis isoform (Homo sapiens); conditions: at 1 µM;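 also: reported value is the mean inhibition of PHKG2 from the GSK_PKIS screening set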
Value expressed in %; do not type the unit.

A selection of reference data follows.
NS(=O)(=O)c1cccc(Nc2cc(-c3ccc(F)cc3)n[nH]2)c1	8.84
NS(=O)(=O)c1ccc(N/N=C2\C(=O)Nc3ccc(Cl)cc32)cc1	8.4
CCn1c(-c2nonc2N)nc2ccc(F)cc21	12.6
O=C(Nc1ccc(Oc2ccc3[nH]c(NC(=O)c4ccco4)nc3c2)cc1)Nc1cc(C(F)(F)F)ccc1F	-0.56

Now let's try a different one.
Query string: Indicate its recorded inhibition; the compound in question is COC(=O)Nc1nc2cc(Oc3ccc(NC(=O)Nc4cccc(Br)c4)cc3)ccc2[nH]1
Result string: 2.45

====

Let's look at some molecules and their measured inhibition.
target: Casein kinase I isoform alpha (Homo sapiens); details: at 1 µM;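 also: each value is a mean percent inhibition of the kinase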
Reply numerically in %, unit not repeated.

Use these answered entries as a reference point.
COc1ccc2ncnc(Nc3ccc(OCc4ccccc4)cc3)c2c1	8.76
COc1cc(Nc2nccc(-c3cnn4ncccc34)n2)cc(OC)c1	45.4
NS(=O)(=O)c1ccc(-c2cc3ccncc3cc2OCc2ccccc2)cc1	3.35
Nc1ccc(C#Cc2cncnc2Nc2ccc(OCc3cccc(F)c3)c(Cl)c2)cc1	2.49
NS(=O)(=O)c1ccc(NC=C2C(=O)Nc3ccc4ncsc4c32)cc1	22.3

Query string: # return recorded inhibition for input Cc1cc(Cl)cc2c1NC(=O)C2=NNc1ccc(S(N)(=O)=O)cc1
Result string: 0.59

Query string: Could you please provide reported inhibition for CCOc1nccc2c1nc(-c1nonc1N)n2CC ? Thanks!
Result string: 2.28

Query string: Respond only with inhibition recorded for O=S(=O)(CCOCc1ccc(-c2ccc3ncnc(Nc4ccc(OCc5cccc(F)c5)c(Cl)c4)c3c2)o1)c1ccccc1
Result string: -0.08

Query string: Look up inhibition of NS(=O)(=O)c1ccc(Nc2cc(-c3cccc(O)c3)n[nH]2)cc1 and report it.
Result string: 5.95

Query string: Indicate its recorded inhibition; the molecule in question is NS(=O)(=O)c1cccc(-c2cc3ccncc3cc2OCc2ccccc2)c1
Result string: 3.92

Query string: Query inhibition for OCc1ccc(-c2nc(-c3ccccn3)c(-c3ccc4c(c3)OCO4)[nH]2)cc1
Result string: 43.3

Query string: Hello, please tell me recorded inhibition for this one: COc1cc(/C=N/Nc2ncnc3c2cnn3C(C)C)ccc1O
Result string: 0.99

Query string: Note inhibition for the molecule shown: COC(=O)Nc1nc2cc(Oc3ccc(NC(=O)Nc4cccc(Br)c4)cc3)ccc2[nH]1
Result string: 9.35

Query string: Fill in inhibition for record COc1cc2ncnc(Nc3ccc4c(cnn4Cc4ccccc4)c3)c2cc1OC
Result string: 1.16

Hello, the source for this data is ChEMBL document CHEMBL1961873, in case you need it.
